Source of measurements: patent US9453053B2

# System: isolated rat ventricular cardiomyocytes
# Assay type: cell-based
Ends that are not written are not given here.
readout_label: EC50 (nM)
Give your result in nM as a bare value.

Looking up DKDDPPYVVLVAALTVA [S100A1ct6/11] , I see its EC50 listed as 87
